Source of measurements: ChEMBL document CHEMBL1926612

- ASSAY_NAME: Growth inhibition of human A375-C5 cells after 48 hrs by SRB assay
- Format: functional
- CONDITION_DETAILS: A375-C5, 48 h
So basically: is GI50 under 10 µM? Then 1. Not under? Then 0.

Look over these answered cases.
- MOLECULE: "CCCc1c(O)ccc(C(=O)/C=C/c2cc(OC)c(OC)cc2OC)c1O"
  CLASS_ASSIGNMENT: 0
- MOLECULE: "CCCc1c(O)ccc(C(=O)/C=C/c2ccccc2Cl)c1O"
  CLASS_ASSIGNMENT: 0
- MOLECULE: "Cc1c(O)ccc(C(=O)/C=C/c2ccc(C(F)(F)F)cc2)c1O"
  CLASS_ASSIGNMENT: 0
- MOLECULE: "CCCc1c(O)ccc(C(=O)/C=C/c2cc(OC)c(OC)c(OC)c2)c1O"
  CLASS_ASSIGNMENT: 1
- MOLECULE: "O=C(/C=C/c1ccc(OCc2ccccc2)cc1)c1ccc(O)cc1O"
  CLASS_ASSIGNMENT: 1

Please determine if COc1cc(OC)c(OC)cc1/C=C/C(=O)c1ccc(O)cc1O is below 10 µM in terms of GI50.
0

For Cc1c(O)ccc(C(=O)/C=C/c2ccc(Cl)cc2Cl)c1O , is the recorded GI50 below the cut-off of 10 µM?
0

Does COc1cc(/C=C/C(=O)c2ccc(O)cc2O)cc(OC)c1OC have GI50 strictly under 10 µM?
1

For COc1ccc(C2CC(=O)c3ccc(O)c(C)c3O2)c(OC)c1 (stereo unspecified) , is the recorded GI50 below the cut-off of 10 µM?
0

Hello, is GI50 of the following molecule strictly smaller than 10 µM? COCOc1ccc(/C=C/C(=O)c2ccc(O)c(C)c2O)c(OCOC)c1
0

I'd appreciate it if you could check whether Cc1c(O)ccc(C(=O)/C=C/c2ccc(Cl)cc2)c1O has GI50 smaller than 10 µM.
0
